Recorded Binding of serum 1a to looped/cyclic peptides of protein N of SARS-CoV Urbani values for a group of sequences are listed next.
Tested on: antibodies in sera from SARS patients (sera 1a, 1b, 2, 6, 37, 62, London, SARS-yellow, SARS-green)
Format: binding, human
Design: unit not given here
Provide a numeric answer; units are not to be included.

Here's what some known entries look like.
>  <input-sequence>
RNPNNNAATVLQLPQ

>  <endpoint-result>
0.4

$$$$
>  <input-sequence>
GQGVPINTNSGPDDQ

>  <endpoint-result>
0.2

$$$$
>  <input-sequence>
TEPKKDKKKKTDEAQ

>  <endpoint-result>
0.2

$$$$

Next, consider the following sequence.
IN: Give the value of Binding of serum 1a to looped/cyclic peptides of protein N of SARS-CoV Urbani reported for the following: PTEPKKDKKKKTDEA
OUT: 0.2

---

Tested on: antibodies in sera from SARS patients (sera 1a, 1b, 2, 6, 37, 62, London, SARS-yellow, SARS-green)
Assay type: binding, human
readout-kind: Binding of serum London to looped/cyclic peptides of protein M of SARS-CoV Urbani
Provide a numeric answer; units are not to be included.

>  <input-sequence>
RLFARTRSMWSFNPE

>  <endpoint-result>
0.2

$$$$

IN: Give the value of Binding of serum London to looped/cyclic peptides of protein M of SARS-CoV Urbani reported for the following: CIVGLMWLSYFVASF
OUT: 0.2

IN: Give the value of Binding of serum London to looped/cyclic peptides of protein M of SARS-CoV Urbani reported for the following: VATSRTLSYYKLGAS
OUT: 0.2

---

System: antibodies in sera from SARS patients (sera 1a, 1b, 2, 6, 37, 62, London, SARS-yellow, SARS-green)
Assay type: binding, human
Tick TRUE if Binding of serum 2 to looped/cyclic peptides of protein X2 of SARS-CoV Urbani is 0.4 or greater. Tick FALSE if Binding of serum 2 to looped/cyclic peptides of protein X2 of SARS-CoV Urbani is less than 0.4.

Here's what some known entries look like.
>  <input-sequence>
RRRLLACLCKHKKVS

>  <classification>
FALSE

$$$$
>  <input-sequence>
KYTQSTALQELLIQQ

>  <classification>
TRUE

$$$$
>  <input-sequence>
QELLIQQWIQFMMSR

>  <classification>
TRUE

$$$$
>  <input-sequence>
KLLQTLVLKMLHSSS

>  <classification>
FALSE

$$$$

IN: Identify whether the reported Binding of serum 2 to looped/cyclic peptides of protein X2 of SARS-CoV Urbani of the following sequence is 0.4 or greater: SLSLHKLLQTLVLKM
OUT: FALSE

IN: Identify whether the reported Binding of serum 2 to looped/cyclic peptides of protein X2 of SARS-CoV Urbani of the following sequence is 0.4 or greater: SPKFTTSLSLHKLLQ
OUT: FALSE

IN: Identify whether the reported Binding of serum 2 to looped/cyclic peptides of protein X2 of SARS-CoV Urbani of the following sequence is 0.4 or greater: LCKHKKVSTNLGTHS
OUT: FALSE

IN: Identify whether the reported Binding of serum 2 to looped/cyclic peptides of protein X2 of SARS-CoV Urbani of the following sequence is 0.4 or greater: CKYTQSTALQELLIQ
OUT: TRUE

IN: Identify whether the reported Binding of serum 2 to looped/cyclic peptides of protein X2 of SARS-CoV Urbani of the following sequence is 0.4 or greater: QWIQFMMSRRRLLAC
OUT: FALSE

IN: Identify whether the reported Binding of serum 2 to looped/cyclic peptides of protein X2 of SARS-CoV Urbani of the following sequence is 0.4 or greater: TVYHITVSQIQLSLL
OUT: FALSE
